Readings of growth for the listed compounds
system: NCI-H23 lung; assay: NCI-60 one-dose screen, 48 h (100 = growth as untreated, 0 = no growth, -100 = all killed); details: 10 µM
This is part of a sample that, as a whole, favours compounds with a hit. Of some 83,000 tested, about 20% had one in any assay. Calls of active or inactive are those of the source. The calls were made as follows: active = growth percent below 10; inactive = the rest.
measurementLabel: growth

1. N#CCc1ccc([N+](=O)[O-])cc1
98.5% (inactive)
2. CC(C)=CC(=O)OC(=O)C=C(C)C
117% (inactive)
3. CC(=O)c1sc2c(c1OC(=O)c1ccc(Cl)cc1Cl)c(=O)n(-c1ccccc1)c(=S)n2-c1ccccc1
23.9% (inactive)
4. CO[C@H]1C[C@@H]2CC[C@@H](C)[C@@](O)(O2)C(=O)C(=O)N2CCCC[C@H]2C(=O)O[C@H]([C@H](C)C[C@@H]2CC[C@@H](O)[C@H](OC)C2)CC(=O)[C@H](C)C=C(C)[C@@H](O)[C@@H](OC)C(=O)[C@H](C)C[C@H](C)/C=C/C=C/C=C1C
45.4% (inactive)

====

system: UO-31 renal; test: NCI-60 one-dose screen, 48 h (100 = growth as untreated, 0 = no growth, -100 = all killed); conditions: 10 µM
The panel holds about 83,000 compounds, 20% with a hit somewhere; the sample as a whole holds those more often.
measurementLabel: growth (%)

1) O=c1[nH][nH]c(=O)c2cc([N+](=O)[O-])ccc12
85.7
2) C#C[C@H]1CCCCCC1O (some centres undefined)
97.1
3) C#CCSc1nnnn1-c1ccc(Br)c(C)c1
-93.1
4) CC12CC3CC1C(C(=O)O2)C3C(=O)O (centres undefined)
93.5
5) CC1=CC(=O)c2ccccc2C1=O
70
6) O=C1N(C[P+](c2ccccc2)(c2ccccc2)c2ccccc2)CCCN1C[P+](c1ccccc1)(c1ccccc1)c1ccccc1
87.1
7) CC(=O)c1c[nH]c2ccccc12
74.7
8) CC(=O)OCC1CCCO1 (centres undefined)
92.2
9) CCN(CC)CCNc1ccc(CO)c2sc3ccccc3c(=O)c12
25.5
10) COc1cc(C2c3cc4c(cc3C3OC(=O)C2C3CO)OCO4)cc(OC)c1OC (centres undefined)
38.2
11) COc1cc2cc(c1Cl)N(C)C(=O)C[C@H](OC(=O)[C@H](C)N(C)C(C)=O)[C@]1(C)O[C@H]1[C@H](C)[C@@H]1C[C@@](O)(NC(=O)O1)[C@H](OC)C=C/C=C(\C)C2
7.35
12) Brc1cnc2ccccc2c1
78.2
13) c1ncc2[nH]cnc2n1
83.5
14) CCN=c1cc2sc3cc(NCC)c(C)cc3nc-2cc1C
40.5

====

test system: RXF 393 renal; experiment: NCI-60 one-dose screen, 48 h; settings: 10 µM
Compounds without any hit were thinned out: in the full panel of roughly 83,000, 20% have a hit. The source made the active and inactive calls. The calls were made as follows: active = growth percent below 10; inactive = the rest.
Labels: active, inactive

1. CN(C)C(=O)Oc1cccc([N+](C)(C)C)c1
inactive
2. O=C(O)/C=C/c1ccc2c(c1)CCC2
inactive
3. CCCC1(c2ccccc2)NC(=O)NC1=O (stereo unspecified)
inactive
4. O=c1c2ccccc2c(Br)c(Br)c2ccccc12
inactive
5. CCCCCCCO
inactive
6. O=[N+]([O-])c1cccc(N=Nc2ccc(O)cc2O)c1
inactive
7. O=C(/C=C\c1ccc(O)cc1)c1ccccc1
inactive
8. CC1(C(=O)O)NC(C(=O)O)Cc2c1[nH]c1ccccc21 (stereo unspecified)
inactive
9. c1csc(-c2cc(-c3cc(-c4cccs4)[nH]n3)n[nH]2)c1
inactive
10. Cc1ccc(/C=C2\SC(=S)N(c3ccc(F)cc3)C2=O)o1
inactive
11. Cc1ccc(C(=O)NC2c3ccccc3Oc3ccccc32)cc1
inactive
12. CC1(C)N=C(N)N=C(N)N1c1ccc(Cl)cc1
inactive
13. Cc1cc2nc(CO)[nH]c2cc1C
inactive
14. CCCOC(=O)C(O)c1ccccc1 (stereo unspecified)
inactive
15. O=[N+]([O-])c1ccccc1S(=O)c1ccccc1[N+](=O)[O-]
inactive
16. COc1ccc(-c2cc(-c3cc(-c4ccc(OC)cc4)nc(N)n3)nc(N)n2)cc1
inactive
17. CN(C)c1ccc(C(c2ccc(O)cc2)c2ccc(N(C)C)cc2)cc1
inactive
18. NC(CSC(c1ccccc1)(c1ccccc1)c1ccccc1)C(=O)O (stereo unspecified)
active
19. CN(C)C(C)(C)CC(C)(C)C
inactive
20. CCc1ccc(/C(C#N)=C/C=C/c2ccccc2)cc1
inactive
21. CCCCCCCCOC(=O)c1ccccn1
inactive
22. CCCCCCCCCCC(C)Br (stereo unspecified)
inactive
23. CC(C)=C(NC(=O)c1ccccc1)C(=O)O
inactive
24. COc1cc(C2NC(=O)C(C#N)=C(Nc3cccc(C)c3)S2)ccc1O (stereo unspecified)
inactive
25. CC(C)COC(=O)COC(=O)OCCOCCOC(=O)OCC(=O)OCC(C)C
inactive
26. CCN(CC)C(=O)/C=C(/C)c1ccccc1
inactive
27. CCCCNC(=O)C(=O)NCCCC
inactive
28. COc1ccccc1NC(=O)c1cc2cc(Br)ccc2cc1O
inactive
29. CCCCN(CCCC)CCCO
inactive
30. CCOC(=O)c1[nH]c(C)c(C(C)=O)c1C
inactive
31. COc1ccc(NC(=O)CCl)cc1
inactive
32. c1ccc(Sc2ccccc2)cc1
inactive
33. c1c(-c2cc(C3CC3)[nH]n2)n[nH]c1C1CC1
inactive
34. Cc1c(O)cccc1O
inactive
35. O=C(CS)Nc1ccc2ccccc2c1
inactive
36. c1cc2cccc3c4cccc5cccc(c(c1)c23)c54
inactive
